# credit: patent US7910622B2

- target_system: TraR (Agrobacterium tumefaciens, UniProt P33905)
- Construct: These strains lack their AHL synthase (I) genes, but retain their native R genes; endogenous in cells; host or cells: A. tumefaciens WCF47 (Δ-traI) with PtraI-lacZ plasmid pCF372
- Sequence (P33905 whole entry): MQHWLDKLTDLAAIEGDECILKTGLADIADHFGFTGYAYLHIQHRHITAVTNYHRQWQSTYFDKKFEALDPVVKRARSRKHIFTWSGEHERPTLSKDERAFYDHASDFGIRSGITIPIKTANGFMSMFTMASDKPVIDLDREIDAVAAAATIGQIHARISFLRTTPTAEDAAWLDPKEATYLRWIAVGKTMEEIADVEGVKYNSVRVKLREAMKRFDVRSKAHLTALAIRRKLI
- assay_name: cell-based
- measurement_setup: read-out: A. tumefaciens-TraR Inhibition [%], 10 μM synthetic ligand against 100 nM OOHL; A. tumefaciens WCF47 (pCF372); normalized to OOHL
# inhibition at 10 µM listing for each entry below
Quick note: give the figure in %, leave out the unit.

For orientation, consider the following solved cases.
# compound, value_measured
data = [
    ("CCCCCCCCCCCC(=O)N[C@H]1CCOC1=O [A5, C12 AHL]", 22),
    ("CCCCCCCC(=O)N[C@H]1CCOC1=O [A3, C8 AHL]", 83),
]

[ask] Would you kindly share the measured inhibition at 10 µM for O=C(Cc1ccc(C(F)(F)F)cc1)N[C@H]1CCOC1=O [B23, 4-trifluoromethyl PHL] ?
[reply] 92
